# inhibition per record follows
# protocol: NOD1 signaling inhibitors, primary screen, cell-based, luminescence, uHTS (AID 1578);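 further: HEK-293T reporter cells stimulated with the NOD1 agonist gamma-tri-DAP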
# settings: NOD1-driven NF-kB luciferase reporter cells, at 4 µM, hits give high values
The whole screen tested about 290,000 compounds, of which about 3,000 (1%) were called active. The sample as a whole holds a higher share of actives than the screen did.
The response must be a number in % with no trailing unit.

compound	scale unit	inhibition
O=C(Cc1c(Cl)cccc1Cl)Nc1ccncc1Cl	%	5.2
COc1ccc(CC(=O)Nc2cccnc2)cc1	%	-8.6
CCN(CC)S(=O)(=O)c1ccc(N2CCCC2)c(NS(=O)(=O)c2ccccc2)c1	%	4.1
CCOc1cccc(N2C(=O)CC(NCc3ccc(S(N)(=O)=O)cc3)C2=O)c1 (configuration not stated)	%	-9.2
Cc1c(C)c2c(OCC(=O)N3CCC(C(=O)NCC(C)C)CC3)cc3c(c2oc1=O)CCC(C)(C)O3	%	-19.1

Can you share its inhibition? I mean this compound: COc1ccc(C2C(C#N)=C(N)OC3=C2C(=O)CCC3)cc1Cn1nc(C)c([N+](=O)[O-])c1C (configuration not stated)
-8.7

Given the compound COc1ccc(CNCc2cc(OC)ccc2OC)cc1 , what is its reported inhibition?
-19.6

Param item = Cc1ccc(C2(C)NC(=O)N(CC(=O)Nc3cc(S(=O)(=O)N(C)C)ccc3C)C2=O)cc1 (configuration not stated) ; retrieve measured inhibition.
-19.4

Reported inhibition, compound Cc1ccc(S(=O)(=O)NC(=O)Nc2ccccc2)cc1 : ____
-30.4

Param item = COc1ccc(C2C(C#N)=C(N)Oc3n[nH]c(C)c32)cc1Cn1nc(C)c([N+](=O)[O-])c1C (configuration not stated) ; retrieve measured inhibition.
-12.1

Tell me the measured inhibition of CCc1c(C)nc(Nc2nc(C)c3cc(OC)ccc3n2)[nH]c1=O , please.
-42.8

Requested field: inhibition. Item: CCCCn1c(CCC(=O)O)nc2c1c(=O)[nH]c(=O)n2CCC
-15.7

Item CC(C)(C)C(=O)NC1(C(F)(F)F)NC(=O)N(c2ccccc2F)C1=O (configuration not stated) has what recorded inhibition?
2.6

Quick check: inhibition of CCN1C(=O)/C(=C/c2nc3ccccc3c(=O)[nH]2)c2ccccc21 ?
21.1

GET /values?readout=inhibition&item= CCCCn1c(=O)[nH]c(=O)c2c1nc(CN1C(=O)c3ccccc3S1(=O)=O)n2CCC
-23.3

Which inhibition is reported for this compound? CC(=O)c1c(C)oc2c1C(=O)c1ccccc1C2=O
79.5
